The values you see were collected from patent US4968705A.

Parameter: IC50. Scope: all listed entries.
Target Under Test: purified phosphodiesterase
Procedure Details: In vitro inhibition of purified phosphodiesterase
Type: biochemical
Settings: basal; read-out: Phosphodiesterase inhibition IC50 basal (converted)
Experimental Readout: IC50 (µM)

• CC1(C)C(=O)N(CCN2CCC(OC(c3ccccc3)c3ccccc3)CC2)c2ccccc21 = 30
• COc1cc2c(cc1OC)C(=O)N(CCCN1CCC(OC(c3ccccc3)c3ccccc3)CC1)C2 = 70

====

Target Under Test: purified phosphodiesterase
Procedure Details: In vitro inhibition of purified phosphodiesterase
Type: biochemical
Settings: +calmoduline; read-out: Phosphodiesterase inhibition IC50 +calmoduline (converted)
Each entry below lists one item and its recorded IC50 value.
Experimental Readout: IC50 (µM)

- O=C1c2ccccc2CN1CCCN1CCC(OC(c2ccccc2)c2ccccc2)CC1 [Example 16]: 30
- O=C1Cc2ccccc2N1CCCN1CCC(OC(c2ccccc2)c2ccccc2)CC1 [Example 5]: 100
- CC1(C)C(=O)N(CCN2CCC(OC(c3ccccc3)c3ccccc3)CC2)c2ccccc21 [Example 14]: 20
- O=C1Cc2ccccc2N1CCN1CCC(C(c2ccc(F)cc2)c2ccc(F)cc2)CC1 [Example 10]: 100
- O=C1c2ccc(F)cc2CN1CCCN1CCC(OC(c2ccccc2)c2ccccc2)CC1 [Example 19]: 20
- O=C1c2cc(F)ccc2CN1CCN1CCC(OC(c2ccccc2)c2ccccc2)CC1 [Example 20]: 20
- O=C1c2ccc(F)cc2CN1CCN1CCC(OC(c2ccccc2)c2ccccc2)CC1 [Example 18]: 20
- CC(C)C1C(=O)N(CCN2CCC(OC(c3ccccc3)c3ccccc3)CC2)c2ccccc21 (centres unmarked) [Example 15]: 30
- COc1cc2c(cc1OC)C(=O)N(CCCN1CCC(OC(c3ccccc3)c3ccccc3)CC1)C2 [Example 12]: 20
- O=C1Cc2cc(F)ccc2N1CCCN1CCC(OC(c2ccccc2)c2ccccc2)CC1 [Example 17]: 10

====

# key: entry, value: IC50
Target Under Test: purified phosphodiesterase
Procedure Details: In vitro inhibition of purified phosphodiesterase
Type: biochemical
Settings: basal; read-out: Phosphodiesterase inhibition IC50 basal (converted)
Experimental Readout: IC50

• O=C1Cc2cc(F)ccc2N1CCN1CCC(OC(c2ccccc2)c2ccccc2)CC1 = > 10 µM
• CC(C)C1C(=O)N(CCN2CCC(OC(c3ccccc3)c3ccccc3)CC2)c2ccccc21 (stereo not shown) = 100 µM
• O=C1Cc2cc(F)ccc2N1CCCN1CCC(OC(c2ccccc2)c2ccccc2)CC1 = > 100 µM
• O=C1c2ccc(F)cc2CN1CCCN1CCC(OC(c2ccccc2)c2ccccc2)CC1 = > 100 µM

====

Target Under Test: purified phosphodiesterase
Procedure Details: In vitro inhibition of purified phosphodiesterase
Type: biochemical
Settings: basal; read-out: Phosphodiesterase inhibition IC50 basal (converted)
Catalogue of IC50 readings, one per entry.
Experimental Readout: IC50

- O=C1c2ccccc2CN1CCN1CCC(OC(c2ccccc2)c2ccccc2)CC1: > 100 µM
- O=C1c2cc(F)ccc2CN1CCN1CCC(OC(c2ccccc2)c2ccccc2)CC1: > 100 µM
- O=C1c2ccc(F)cc2CN1CCN1CCC(OC(c2ccccc2)c2ccccc2)CC1: 100 µM
- O=C1NCC2(CCN(CCc3ccccc3)CC2)O1 [Fenspiride, reference compound]: > 100 µM
- O=C1Cc2ccccc2N1CCN1CCC(C(c2ccc(F)cc2)c2ccc(F)cc2)CC1: > 100 µM
